Let's look at some compounds and their measured IC50.
# ASSAY SYSTEM: human CYP2D6 (Homo sapiens, UniProt P10635)
# Sequence (P10635 whole entry): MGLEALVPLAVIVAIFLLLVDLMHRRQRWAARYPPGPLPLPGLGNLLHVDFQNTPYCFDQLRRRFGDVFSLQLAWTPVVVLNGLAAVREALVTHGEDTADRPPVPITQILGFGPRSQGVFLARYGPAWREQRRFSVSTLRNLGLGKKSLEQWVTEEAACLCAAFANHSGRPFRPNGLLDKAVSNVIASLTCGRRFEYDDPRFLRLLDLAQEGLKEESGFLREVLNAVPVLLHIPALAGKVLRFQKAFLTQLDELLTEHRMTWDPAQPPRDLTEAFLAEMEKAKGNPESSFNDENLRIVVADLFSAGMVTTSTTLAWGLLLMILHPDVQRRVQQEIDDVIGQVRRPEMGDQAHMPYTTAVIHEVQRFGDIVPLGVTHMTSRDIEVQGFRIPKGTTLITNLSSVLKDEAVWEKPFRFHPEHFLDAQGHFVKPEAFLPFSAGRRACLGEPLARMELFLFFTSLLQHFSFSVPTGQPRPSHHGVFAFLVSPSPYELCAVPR
# RUN DESCRIPTION: biochemical
Counter-ions that a name gives are not always drawn.

# COMPOUND, IC50 [µM]
rows = [
    ("CC1=C(C(=O)OC(C)C)C(c2cccc([N+](=O)[O-])c2)C(C(=O)OC2CN(C(c3ccccc3)c3ccccc3)C2)=C(N)N1 (centres unmarked)", 13.2),
    ("COP(=S)(Oc1cc(Cl)c(Br)cc1Cl)c1ccccc1 (centres unmarked)", 89.4),
    ("C=CC[C@]1(O)CC[C@H]2[C@@H]3CCC4=CC(=O)CCC4=C3C=C[C@@]21C", 46.9),
    ("CN(Cc1cc(Br)cc(Br)c1N)C1CCCCC1 [Bromhexine hydrochloride]", 0.01),
    ("Nc1c(Cl)c(Cl)c(Cl)c(Cl)c1Cl", 75.3),
    ("CCOP(=S)(OCC)SCSP(=S)(OCC)OCC", 37),
    ("CCOP(=S)(OCC)Oc1ccc([N+](=O)[O-])cc1", 32.3),
    ("CCOP(=S)(OCC)Oc1cc(-c2ccccc2)on1", 35.6),
]
